# Assayed Target: 2-Hydroxyacid oxidase 2 (Rattus norvegicus)
# Sequence (Q07523 whole entry): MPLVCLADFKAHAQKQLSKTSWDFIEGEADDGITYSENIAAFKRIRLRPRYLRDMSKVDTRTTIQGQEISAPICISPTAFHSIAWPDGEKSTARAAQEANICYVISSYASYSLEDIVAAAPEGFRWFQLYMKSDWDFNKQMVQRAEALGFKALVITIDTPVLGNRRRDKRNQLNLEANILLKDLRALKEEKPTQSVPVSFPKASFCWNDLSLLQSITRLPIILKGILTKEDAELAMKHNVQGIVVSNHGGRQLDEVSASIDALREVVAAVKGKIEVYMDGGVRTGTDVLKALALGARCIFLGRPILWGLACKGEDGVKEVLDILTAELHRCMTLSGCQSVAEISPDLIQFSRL
Measure Name: IC50 (µM)
The figure you give is taken to be in µM; do not add the unit.

Structure Notation	Assayed Target	Unit	IC50
CC1(C)C(/C=C/c2ccc(O)c(C(=O)O)c2)=[N+](CCC(=O)O)c2ccc3ccccc3c21	2-Hydroxyacid oxidase 2 (Rattus norvegicus)	µM	36.7

Now look at this entry.
Sample O=C(O)c1cc(/C=C/C2=CC(=C3C(=O)c4ccccc4C3=O)c3ccccc3O2)ccc1O ; IC50 observed: 248

Hey, just so you know, these numbers are from ChEMBL document CHEMBL6177956.
